Consider the following binders and their measured binding signal readings.
Molecular target: T1, RBFOX1 RRM RbFoxmut (Fox-RRM*) (Homo sapiens, UniProt Q9NWB1 109-208, R118D;E147R;N151S;E152T)
T1 sequence: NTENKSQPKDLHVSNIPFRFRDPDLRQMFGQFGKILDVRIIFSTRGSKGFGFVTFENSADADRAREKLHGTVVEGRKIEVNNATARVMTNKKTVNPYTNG
Assay: EMSA; HiTS-Eq, 1 nM pool, 10 min; buffer printed only for the single-RNA assays: 10 mM Tris pH 7.5, 150 mM NaCl, 3.4 mM EDTA, 0.001% NP-40, 30 C
Conditions: tags: His6 N-terminal (pET28a); label: 5' 32P
Over roughly 16,000 sequences, “ka relative to ugcaugu” has its median near 0.096; the highest 2% begin near 0.35. Shown is part of a subset that was picked to be rich in the highest values.

Use the examples below as a reference point.
• UCUUGCG (DNA:RNA) RNA: GGGAGACCGGAAUUCAGAUUGUCCUCUUGCGUUAAAUCCCGUCGUAGCCACCA DNA 1: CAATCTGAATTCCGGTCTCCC DNA 2: TGGTGGCTACGACGGGATT = 0.168 KA relative to UGCAUGU
• CACCACG (DNA:RNA) RNA: GGGAGACCGGAAUUCAGAUUGUCCCACCACGUUAAAUCCCGUCGUAGCCACCA DNA 1: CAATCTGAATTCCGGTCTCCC DNA 2: TGGTGGCTACGACGGGATT = 0.125 KA relative to UGCAUGU
• GAGAGGA (DNA:RNA) RNA: GGGAGACCGGAAUUCAGAUUGUCCGAGAGGAUUAAAUCCCGUCGUAGCCACCA DNA 1: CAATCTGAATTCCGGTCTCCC DNA 2: TGGTGGCTACGACGGGATT = 0.0596 KA relative to UGCAUGU

// sample AAUCCAU (DNA:RNA) RNA: GGGAGACCGGAAUUCAGAUUGUCCAAUCCAUUUAAAUCCCGUCGUAGCCACCA DNA 1: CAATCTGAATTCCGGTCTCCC DNA 2: TGGTGGCTACGACGGGATT , its binding signal was 0.074 KA relative to UGCAUGU
